test system: Saccharomyces cerevisiae; assay: protein stability index of tFT-peptide fusion (C-terminal peptide) (PSI (0-1 scale)); higher = more stable (slower turnover); settings: genetic background: wild type; temperature: 30 C;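 further: PSI is a weighted mean of sequencing reads over stability bins, variants kept only with over 10 reads, mCherry proximal and sfGFP distal, peptide attached via GGGS linker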
assay_endpoint: protein stability index

>>> result("PPPLLPVPQPLF")
0.672
>>> result("PSPRPSPPLPSP")
0.647
>>> result("IKKKTTKTKIKK")
0.741
>>> result("ASPALPAPRSAP")
0.704
>>> result("IRRGRQGGEHEK")
0.702
>>> result("GERGAYVVGVRW")
0.782
>>> result("EINIMKIIYRKI")
0.666
>>> result("TLSLPPLHPPPH")
0.699
>>> result("HPGPAPPPPRGP")
0.66
>>> result("AVLSVGHWGSGL")
0.69
>>> result("IYITFQIYVSDM")
0.229
>>> result("FESTIKNINNSI")
0.714
>>> result("LFFRVLDRLGEI")
0.726
>>> result("LPSARSLVSPSP")
0.74
>>> result("EAKKNNIVEKQR")
0.681
>>> result("FIPPPLALPFYS")
0.674
>>> result("EIPGPLALSPAG")
0.736
>>> result("PSASYLPCRSKL")
0.747
>>> result("PPPPHTPPLPRS")
0.757

----------
system: Saccharomyces cerevisiae; assay: protein stability index of tFT-peptide fusion (C-terminal peptide) (PSI (0-1 scale)); higher = more stable (slower turnover); conditions: genetic background: das1 deletion; temperature: 37 C
Threshold check on protein stability index: at or above 0.5 gives 1, strictly below gives -1.

>>> class("AFRFHTYFLLLC")
-1
>>> class("FFGVLFRVSLFF")
-1
>>> class("FLIFVVIGGVGL")
-1
>>> class("LVDSRIVWLFVS")
1
>>> class("WLISLLVQPVFL")
-1
>>> class("DALHPCIIYLTC")
1
>>> class("WVVVKITAHTAT")
-1
>>> class("GCLVVVGFFSVF")
-1
>>> class("LLAREILVIVAV")
-1
>>> class("VVPYPFLTLLNI")
1
>>> class("LCLLIHFWISHL")
-1
>>> class("VGASLVVIAIGV")
1
>>> class("FIFCLSCGVWGG")
1
>>> class("RRSRLYKKAGLM")
1
>>> class("WVVVARIFSVFF")
1
>>> class("KTRQLINKITQM")
1
>>> class("LISRGNRALFCI")
1
>>> class("CCGWSGCVSGVL")
1
>>> class("KRKKHKRKLVIC")
1
>>> class("GVGAISLGFSWL")
1
>>> class("FLVCTFCRWVWL")
1
>>> class("FVVFLLFFMLYH")
-1
>>> class("YGAGDLTKYFIV")
1
>>> class("GSVLWISCLIFC")
-1
>>> class("LERLHSVLLLTS")
-1
>>> class("PIHILTHTYIGR")
1
>>> class("VRDQGWILNMLL")
1
>>> class("GWMLVVWCGVFG")
-1
>>> class("VGLLFGWVWSLW")
1
>>> class("AYPAHQLLVSCL")
1
>>> class("FPLGAQTWLCLS")
1
>>> class("YSALHNPPQPVT")
1
>>> class("VFRECSFFLVCC")
-1
>>> class("KLVFLLCLNKVF")
1
>>> class("VCRCFPVCLFSF")
1
>>> class("CLRFVFWFVCFV")
-1
>>> class("FFRFCFLLLASS")
-1
>>> class("SPSRAGQHLYYP")
1
>>> class("RSIVFRVSRRLN")
1

----------
test system: Saccharomyces cerevisiae; test: protein stability index of tFT-peptide fusion (C-terminal peptide) (PSI (0-1 scale)); higher = more stable (slower turnover); details: genetic background: doa10 deletion; temperature: 30 C
Reported protein stability index values are given for each entry in this list.
assay_endpoint: protein stability index

>>> numeric_readout("RIRRVMHLYTNN")
0.0717
>>> numeric_readout("GLSLLLLWFKVC")
0.0902
>>> numeric_readout("VRGAVGGWRLVG")
0.116
>>> numeric_readout("GYAFPPPHRVRT")
0.686
>>> numeric_readout("VWSVSVTIVGRR")
0.439
>>> numeric_readout("LPNLPPTSPERH")
0.656
>>> numeric_readout("PPPLPPPSPSRP")
0.695
>>> numeric_readout("ELTYVYRTALIA")
0.0966
>>> numeric_readout("YHFRLLVTCCPC")
0.225
>>> numeric_readout("DVCGVRYVLFVL")
0.416
>>> numeric_readout("VYLVVLYLRYFA")
0.173
>>> numeric_readout("RFHFAAPPHRPS")
0.694
>>> numeric_readout("RGLWAAIPRKCT")
0.179
>>> numeric_readout("RLLLLLTCIIYI")
0.183
>>> numeric_readout("LIPFPGFFILLT")
0.49
>>> numeric_readout("VVVLLLVVWFCL")
0.283
>>> numeric_readout("TVILVLFPSPFL")
0.448
>>> numeric_readout("LLLLASLFFRLA")
0.177
>>> numeric_readout("WFIFATFLILVT")
0.154
>>> numeric_readout("VLYCRSCFLRVS")
0.167
>>> numeric_readout("GSVLWISCLIFC")
0.164
>>> numeric_readout("CLYATQFWGRYG")
0.229
>>> numeric_readout("AGLLVLISWRLF")
0.124
>>> numeric_readout("GCVLVFFLRLDL")
0.347
>>> numeric_readout("RWPLVIRSLIVF")
0.214
>>> numeric_readout("VARRRQQWMRGS")
0.529
>>> numeric_readout("CLVISVLFGVVA")
0.178
>>> numeric_readout("KLVFLLCLNKVF")
0.173
>>> numeric_readout("RGDCFLVLCVWR")
0.348
>>> numeric_readout("VFFPCRLLPLLF")
0.166
>>> numeric_readout("RPPPYSPRLFHN")
0.0941
>>> numeric_readout("PYLSAPLVATLS")
0.234
>>> numeric_readout("YLLTAFLSAFNP")
0.529
>>> numeric_readout("LFFLPPCYWFLL")
0.384
>>> numeric_readout("DVRLVLCEMIKG")
0.394
>>> numeric_readout("LLGGFAAFWRIL")
0.135
>>> numeric_readout("GALWVLGVVVGG")
0.329
>>> numeric_readout("GLAVLSWLYIEL")
0.445
>>> numeric_readout("INILVIWRKNHV")
0.0744
>>> numeric_readout("RHVFLRIKVLNL")
0.344
>>> numeric_readout("FLAFSYIRLLFF")
0.135

----------
test system: Saccharomyces cerevisiae; assay: protein stability index of tFT-peptide fusion (C-terminal peptide) (PSI (0-1 scale)); higher = more stable (slower turnover); settings: genetic background: doa10 deletion; temperature: 30 C
assay_endpoint: protein stability index

>>> result("GYTVYARRLIMC")
0.0746
>>> result("VQLLTRLKTPHP")
0.636
>>> result("VGLWFLCSLAFS")
0.308
>>> result("GSLHVISVVGML")
0.393
>>> result("VFGCHHLEVSVC")
0.203
>>> result("CCVLGDRCIGSD")
0.631
>>> result("VRICVVLRVCWW")
0.117
>>> result("LYLEAYFCIFHF")
0.334
>>> result("SLVIRLNIRLIL")
0.329
>>> result("VIQKKKKNKITS")
0.197

----------
tested on: Saccharomyces cerevisiae; assay: protein stability index of tFT-peptide fusion (C-terminal peptide) (PSI (0-1 scale)); higher = more stable (slower turnover); conditions: genetic background: wild type; temperature: 30 C
# protein stability index per record follows
assay_endpoint: protein stability index

>>> numeric_readout("GGGGGGLVGQGD")
0.673
>>> numeric_readout("VRQSCGSRGFFF")
0.729
>>> numeric_readout("FGVHCSSPTSGG")
0.668
>>> numeric_readout("ASRIGHIGQPVI")
0.689
>>> numeric_readout("GLGGRAAQKCGQ")
0.688
>>> numeric_readout("LVRCRKGEGRGA")
0.701
>>> numeric_readout("DGLGLLVGAGVG")
0.623
>>> numeric_readout("PVGDDDRTIPRL")
0.661
>>> numeric_readout("VARRGLFLSISW")
0.596
>>> numeric_readout("VSTPSPPSDSTP")
0.685

----------
tested on: Saccharomyces cerevisiae; test: protein stability index of tFT-peptide fusion (C-terminal peptide) (PSI (0-1 scale)); higher = more stable (slower turnover); details: genetic background: cdc53-1; temperature: 37 C
Consider the reported protein stability index of an entry and match it to a band in low = under 0.5, moderate = from 0.5 up to 0.7, high = 0.7 and over

>>> class("LERLHSVLLLTS")
"low"
>>> class("VVFLWRCRLLLG")
"low"
>>> class("CVVFLWCGGCWV")
"moderate"
>>> class("LCLLHCSICISF")
"low"
>>> class("YLFDQYDWYKSM")
"high"
>>> class("FLPPVHRCFSIF")
"high"
>>> class("SPCSNFLECLSF")
"high"
>>> class("FSPSPVFVTCRV")
"low"
>>> class("PAVRRLTGLMLM")
"high"
>>> class("WCLLGVPVRVVV")
"low"
>>> class("YFRKDYRKMAQH")
"high"
>>> class("LWFGAWWLGAVG")
"low"
>>> class("LFRFSRLFLFVL")
"low"
>>> class("FSALAPTPLLPL")
"high"
>>> class("SPSRAGQHLYYP")
"high"
>>> class("VFGCHHLEVSVC")
"low"
>>> class("KLKLWSIIKNNA")
"high"
>>> class("LHLTFRLAVLYY")
"low"
>>> class("SLLFLVLFFPLV")
"moderate"
>>> class("YPSASLLPLFSC")
"high"
>>> class("SPTRTCTAIRTP")
"high"
>>> class("FLCWLSFIPLLS")
"low"
>>> class("VPPLPPPGPPTF")
"high"
>>> class("FLLELRFTCSYS")
"low"
>>> class("TLVFPRFLFLVV")
"low"
>>> class("WILLVLACFSSG")
"low"
>>> class("SFTRYIFFLMFF")
"low"
>>> class("GFCFVFVFQCFF")
"low"
>>> class("VMIFYVLGRVWD")
"moderate"
>>> class("VCLLVSVCLLWL")
"low"
>>> class("GYVVYRRYILIR")
"low"
>>> class("RSIVFRVSRRLN")
"high"
>>> class("RIFRCYSFYVVV")
"moderate"
>>> class("IREYSIRIKRLQ")
"high"
>>> class("FCALWLCFRLMV")
"low"
>>> class("VFFLSFIFRFFL")
"moderate"
>>> class("YFIVVSWFLVCW")
"low"
>>> class("RVDVSVLWNRRS")
"high"
>>> class("GGRFVWIVRAVG")
"high"
>>> class("PPPPPPLPSSFP")
"high"
>>> class("FCVCLAVTCCGG")
"low"
>>> class("PRRVTVPGVPPL")
"high"
>>> class("CCVLGDRCIGSD")
"high"
>>> class("LLLPVFLVFSVS")
"low"
>>> class("WFLVLLFFWFLL")
"moderate"
>>> class("FLSVGFSCSFVC")
"moderate"
>>> class("VRICVVLRVCWW")
"low"
>>> class("VWLFSWSVVGGT")
"moderate"
>>> class("VVLGLFCVRMGT")
"moderate"
>>> class("FLVCTFCRWVWL")
"moderate"
>>> class("FVVFYFFLLFGV")
"low"
>>> class("LFFWWVAVVFRV")
"low"
>>> class("GACRVSSCVVVC")
"moderate"
>>> class("VCVRLVHCLVLV")
"low"
>>> class("IVFLPVLLWFSV")
"low"
>>> class("FASVFCVVTGYV")
"moderate"
>>> class("LISRGNRALFCI")
"high"
>>> class("WCVCVSMRMIAI")
"low"
>>> class("CIFLLMAILSLA")
"moderate"
>>> class("KLVFLLCLNKVF")
"moderate"
>>> class("SRFFSSSFYRLC")
"high"
>>> class("IFFFQFLWFCLS")
"low"
>>> class("FCLFMFVPLLPL")
"moderate"
>>> class("GGGWGGRWGRLC")
"high"
>>> class("PGHICVPVLGTA")
"low"
>>> class("PFAGRLWVTSSF")
"high"
>>> class("LLAREILVIVAV")
"low"
